Biological target: neuronal nitric oxide synthase (nNOS) from bovine brain (Bos taurus)
Experiment: Hemoglobin capture assay of nitric oxide formation, nNOS
Conditions: read-out: Ki nNOS; Table 2, Dixon plots
Peptide text beside a SMILES is read from it.

Compound	Target system	Ki / µM
COC(=O)[C@H](Cc1ccccc1)NC(=O)[C@@H](N)CCCNC(=N)N[N+](=O)[O-]	neuronal nitric oxide synthase (nNOS) from bovine brain (Bos taurus)	14
N=C(NCCC[C@@H](NC(=O)[C@H](N)Cc1ccccc1)C(=O)O)N[N+](=O)[O-] [compound 13, D-Phe-D-Arg^NO2] (HELM PEPTIDE1{[dF].[N=C(NCCC[C@@H](N[*:1])C(=O)O)N[N+](=O)[O-]]}$$$$V2.0)	neuronal nitric oxide synthase (nNOS) from bovine brain (Bos taurus)	17
COC(=O)[C@H](Cc1ccccc1)NC(=O)[C@H](N)CCCNC(=N)N[N+](=O)[O-]	neuronal nitric oxide synthase (nNOS) from bovine brain (Bos taurus)	290

FYI, the data here is from patent US6274557A.
